// provenance: patent US20220218805A1

Biological target: T1, tau oligomers (SynAging) (UniProt P10636-8 1-441, limits assumed)
T1 construct: also called misfolded oligomeric tau polypeptide
T1 sequence (P10636 other isoform, or with tags, fused parts or gaps limits assumed): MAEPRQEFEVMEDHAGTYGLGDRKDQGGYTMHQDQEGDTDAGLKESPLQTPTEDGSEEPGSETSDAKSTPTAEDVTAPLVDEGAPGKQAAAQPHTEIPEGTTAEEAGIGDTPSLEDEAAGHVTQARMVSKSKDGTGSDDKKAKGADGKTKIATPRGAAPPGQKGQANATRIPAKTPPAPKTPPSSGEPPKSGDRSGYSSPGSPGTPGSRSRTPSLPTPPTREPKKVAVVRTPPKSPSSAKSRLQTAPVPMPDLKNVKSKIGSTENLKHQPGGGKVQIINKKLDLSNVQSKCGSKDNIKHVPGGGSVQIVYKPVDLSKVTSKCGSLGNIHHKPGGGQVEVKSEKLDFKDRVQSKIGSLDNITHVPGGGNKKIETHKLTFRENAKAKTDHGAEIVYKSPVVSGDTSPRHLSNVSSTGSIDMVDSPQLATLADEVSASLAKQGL
Test: SPR, hybridoma supernatant over immobilized tau oligomers
Reported binding response (RU) by item:
A number alone suffices; assume RU.

Solved entries (count: 3):
Binder | Display Unit | binding response (RU)
Ab14 (clone 10D4) (antibody, V domains shown, tested as hybridoma supernatant; kappa light chain) VH: DVQLQESGPGLVKPSQSLSLTCTVTGFSITSDYAWNWIRQFPGNKLEWMGFIRYSGNTRFNPSLKGRGSITRDTSKNQFFLQLNSVTTEDTATYYCASTLEDSYWYFDVWGAGTTVTVSS VL: DVLMTQTPLSLPVSLGDQASISCRSSQSIVHTNGNTYLEWYLQKPGQSPKLLIYKVSNRFSGVPDRFSGSGSGTDFTLKISRVEAEDLGVYYCFQGSHVPLTFGAGTKLELK | RU | 18
Ab10 (clone 9D12) (antibody, V domains shown, kappa light chain) VH: QIQLVQSGPELKKPGETVKISCKASGYTFTNYGMNWVKQAPGKGLKWMGWINTYTGEPTYTDDFKGRFAFSLETSASTAYLQINNLKNEDTATYFCGRGIRDYYTMDYWGQGTSVTVSS VL: DIVMSQSPSSLAVSAGEKVTMSCKSSQSLLNNRTRKNYLAWYQQKPGQSPKLLIYWASTRESGVPDRFTGSGSGTDFTLTISSVQAEDLAVYYCKQSYNLYTFGGGTKLEIK | RU | 14
Ab29 (clone 12D11) (antibody, V domains shown, tested as hybridoma supernatant; kappa light chain) VH: QIQLVQSGPELKKPGETVKISCKASGYTFTNYGMNWVKQAPGKGLKWMGWINTYSGEPTYVDDFKGRFAFSLETSASTAYLQINNLKNEDMATYFCARSPGAYYTLDYWGQGTSVTVSS VL: DIVMSQSPSSLAVSAGEKVTMSCKSSQSLLNSRTRKNYLAWYQQKPGQSPKLLIYWASTRESGVPDRFTGSGSGTDFTLTISSVQAEDLAVYYCKQSYNLYTFGGGTKLEIK | RU | 6.2

// below: binding response (RU) requested for another binder
IN: Identify measured binding response (RU) corresponding to Ab23 (clone 8E11) (antibody, V domains shown, kappa light chain; also called 8E11.1) VH: QVQLQQSGAELVRPGSSVKISCKASGYAFSSYWMNWVKQRPGQGLEWIGQIYPGDGDTNYNGKFKGKATLTADKSSSTAYMQLSSLTSEDSAVYLCASQIYDGYYTFTYWGQGTLVTVSA VL: DIVMSQSPSSLAVSAGEKVTMSCKSSQSLLNSRTRKNYLAWYQQKPGQSPKLLIYWASTRVSGVPDRFTGSGSGTDFTLTISSVQAEDLAVYYCKQSYNLWTFGGGTKLEIK
OUT: 10.2
